system: A. baumannii ATCC 17978; assay: MIC by broth microdilution (CLSI); type: cell-based, Acinetobacter baumannii; settings: CAMHB with TES buffer, 37 °C, 18–20 h, at least two independent experiments in duplicate
Some substances, each annotated with its measured MIC.

substance	qualifier	MIC (µM)
Control 5 (rne): KFFK(FFK)2 conjugated to PNA ACGTTTCATGG targeting rne [reference compound]	=	50
KFFK(FFK)2-TCAAA*CCA*AAGCT: KFFK(FFK)2 conjugated to γ-modified 13-mer PNA targeting carA RBS (TCAAACCAAAGCT; KFFK(FFK)2 peptide conjugate, γ-modified PNA, chemistry not fully specified)	=	25
KFFK(FFK)2-CGGGGGTGCTCAA: KFFK(FFK)2 conjugated to 13-mer PNA targeting carA start codon (all peptide nucleic acid (PNA); KFFK(FFK)2 cell-penetrating peptide conjugated to the PNA, attachment site not given here)	>	50
Control 3 (acpP): KFFK(FFK)2 conjugated to PNA TGATTTGCCAC targeting acpP [reference compound]	=	25
Control 4 (ftsZ): KFFK(FFK)2 conjugated to PNA GAGGCCATGAC targeting ftsZ [reference compound]	=	50
KFFK(FFK)2-TTACTGTTTAGAT: KFFK(FFK)2 conjugated to 13-mer PNA targeting carA stop codon (all peptide nucleic acid (PNA); KFFK(FFK)2 cell-penetrating peptide conjugated to the PNA, attachment site not given here)	=	50
KFFK(FFK)2-TCAAACCAAAGCT: KFFK(FFK)2 cell-penetrating peptide conjugated to unmodified 13-mer antisense PNA TCAAACCAAAGCT targeting carA RBS (all peptide nucleic acid (PNA); KFFK(FFK)2 peptide conjugated)	=	25
